- test_details: self-splicing fitness, log relative to wild type (ln ratio); higher = more splicing; Tetrahymena group I intron in knt gene, E. coli kanamycin selection, DiMSum; sequences stand for … in CUCUCU…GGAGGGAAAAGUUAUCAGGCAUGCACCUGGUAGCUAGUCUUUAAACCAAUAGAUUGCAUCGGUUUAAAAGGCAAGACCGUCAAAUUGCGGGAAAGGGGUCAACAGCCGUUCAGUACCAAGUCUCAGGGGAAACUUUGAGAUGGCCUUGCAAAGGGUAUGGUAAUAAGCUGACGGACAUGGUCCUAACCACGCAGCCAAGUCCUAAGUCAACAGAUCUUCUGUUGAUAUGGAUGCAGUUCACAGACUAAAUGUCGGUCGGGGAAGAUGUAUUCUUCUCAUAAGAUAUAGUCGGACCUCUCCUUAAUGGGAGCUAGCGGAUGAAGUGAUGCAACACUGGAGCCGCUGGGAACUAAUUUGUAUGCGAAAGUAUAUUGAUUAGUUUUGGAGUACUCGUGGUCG;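 note: selection with 25 µg/mL kanamycin versus none on LB agar overnight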
- condition_context: 30 °C
Each entry gets criterion not met if its self-splicing fitness (ln) stays under -2, and criterion met if its self-splicing fitness (ln) is -2 or above.

{"chain": "ACCAAGCAAUAUUACGCGGU", "category": "criterion not met"}
{"chain": "UGCGAGCAAUAUUACGUGUG", "category": "criterion not met"}
{"chain": "GCGUAGCAAUAUUACGUGCA", "category": "criterion met"}
{"chain": "GGACAGCAAUAUUACGGUCC", "category": "criterion not met"}
{"chain": "GGACAGCAAUAUUACGCCUU", "category": "criterion met"}
{"chain": "CCAUAGCAAUAUUACGUGGA", "category": "criterion not met"}
{"chain": "GUUCAGCAAUAUUACGAGAA", "category": "criterion met"}
{"chain": "UACCAGCAAUAUUACGUUAC", "category": "criterion not met"}
{"chain": "AGGCAGCAAUAUUACGGAGC", "category": "criterion not met"}
{"chain": "CCGAAGCAAUAUUACGCUUU", "category": "criterion not met"}
{"chain": "UAAAAGCAAUAUUACGCGCA", "category": "criterion met"}
{"chain": "GCAAAGCAAUAUUACGCACU", "category": "criterion met"}
{"chain": "CUUGAGCAAUAUUACGUAGA", "category": "criterion not met"}
{"chain": "CAAGAGCAAUAUUACGGUUU", "category": "criterion not met"}
{"chain": "GACCAGCAAUAUUACGAAGG", "category": "criterion not met"}
{"chain": "AAUCAGCAAUAUUACGACUC", "category": "criterion met"}

---

- test_details: self-splicing fitness, log relative to wild type (ln ratio); higher = more splicing; Tetrahymena group I intron in knt gene, E. coli kanamycin selection, DiMSum; sequences stand for … in CUCUCU…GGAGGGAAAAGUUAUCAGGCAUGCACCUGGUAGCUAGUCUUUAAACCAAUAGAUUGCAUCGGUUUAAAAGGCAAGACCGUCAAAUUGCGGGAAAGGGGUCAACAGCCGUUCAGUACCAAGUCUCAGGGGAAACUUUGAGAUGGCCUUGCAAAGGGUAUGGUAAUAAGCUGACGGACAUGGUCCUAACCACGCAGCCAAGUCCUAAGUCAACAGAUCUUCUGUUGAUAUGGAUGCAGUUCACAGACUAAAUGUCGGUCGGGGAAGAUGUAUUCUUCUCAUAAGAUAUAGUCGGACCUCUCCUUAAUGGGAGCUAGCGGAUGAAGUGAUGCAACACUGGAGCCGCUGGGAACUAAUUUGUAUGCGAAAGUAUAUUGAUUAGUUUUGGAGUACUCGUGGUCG
- condition_context: 30 °C
Listed below: self-splicing fitness (ln) values for each entry.

{"chain": "CCCUAGCAAUAUUACGGUGC", "self-splicing fitness (ln)": -3.43}
{"chain": "CCGUAGCAAUAUUACGCAUU", "self-splicing fitness (ln)": -3.54}
{"chain": "GCGUAGCAAUAUUACGUGGA", "self-splicing fitness (ln)": -3.68}
{"chain": "UUGGAGCAAUAUUACGAGUG", "self-splicing fitness (ln)": -4.05}
{"chain": "CUGAAGCAAUAUUACGCUAU", "self-splicing fitness (ln)": -3.68}
{"chain": "UGGUAGCAAUAUUACGUCAG", "self-splicing fitness (ln)": -2.07}
{"chain": "CUCCAGCAAUAUUACGGUCU", "self-splicing fitness (ln)": -4}
{"chain": "UCGAAGCAAUAUUACGAUAC", "self-splicing fitness (ln)": -3.33}
{"chain": "CUGGAGCAAUAUUACGUCAG", "self-splicing fitness (ln)": -4.05}
{"chain": "UCUUAGCAAUAUUACGUCUC", "self-splicing fitness (ln)": -3.09}
{"chain": "UGUUAGCAAUAUUACGUGUG", "self-splicing fitness (ln)": -0.767}
{"chain": "UCAAAGCAAUAUUACGCGCA", "self-splicing fitness (ln)": -0.442}
{"chain": "GAACAGCAAUAUUACGGAAA", "self-splicing fitness (ln)": -2.42}
{"chain": "UCGUAGCAAUAUUACGUCAU", "self-splicing fitness (ln)": -3.23}
{"chain": "AACAAGCAAUAUUACGCAGC", "self-splicing fitness (ln)": -3.18}
{"chain": "GAUUAGCAAUAUUACGGCGA", "self-splicing fitness (ln)": -1.12}
